experiment_notes: Rat pharmacokinetics
Type: in vivo, Sprague-Dawley rats
experimental_context: male, Sprague-Dawley, whole blood, PO 1 mg/kg, blood, read-out: %F
experimental_endpoint: bioavailability (%)

INSERT INTO results (chemical_structure, numeric_value) VALUES
  ('CC(C)c1nn([C@@H]2O[C@H](COS(N)(=O)=O)[C@@H](O)[C@H]2O)c2ncnc(N)c12', 9.29);

* * *

Measured PfTyrRS Tm, listed per entry for reference.
system_under_test: PfTyrRS (Plasmodium falciparum, UniProt Q8IAR7)
Sequence (Q8IAR7 entry or part of it): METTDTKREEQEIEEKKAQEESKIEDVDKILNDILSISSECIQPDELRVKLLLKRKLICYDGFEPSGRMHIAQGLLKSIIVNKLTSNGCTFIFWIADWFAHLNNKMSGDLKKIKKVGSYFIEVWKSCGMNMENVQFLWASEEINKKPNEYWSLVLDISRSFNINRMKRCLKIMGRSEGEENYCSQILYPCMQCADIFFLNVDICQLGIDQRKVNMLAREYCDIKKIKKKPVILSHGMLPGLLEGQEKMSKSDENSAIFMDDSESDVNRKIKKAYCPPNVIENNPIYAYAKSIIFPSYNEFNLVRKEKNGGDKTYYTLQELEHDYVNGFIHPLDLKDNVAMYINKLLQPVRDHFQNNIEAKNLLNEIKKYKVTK
experiment_notes: Differential scanning fluorimetry (DSF) of PfTyrRS
Format: binding
experimental_context: with sulfamate, ATP, tyrosine and tRNA; apo 49.9 ± 0.6
experimental_endpoint: PfTyrRS Tm (°C)

INSERT INTO assay_data (chemical_structure, numeric_value) VALUES
  ('Nc1ncnc2c1c(C(F)(F)F)nn2[C@@H]1O[C@H](COS(N)(=O)=O)[C@@H](O)[C@H]1O', 63.5),
  ('Nc1ncnc2c1c(C1CC1)nn2[C@@H]1O[C@H](COS(N)(=O)=O)[C@@H](O)[C@H]1O', 66.9),
  ('Nc1ncnc2c1c(Oc1ccccc1)nn2[C@@H]1O[C@H](COS(N)(=O)=O)[C@@H](O)[C@H]1O', 65.5);

* * *

Measured pIC50, listed per entry for reference.
System: Cam3.II^rev parasite cultures, trophozoite (25–30 h.p.i.) stage
experiment_notes: 6-h pulse exposure of synchronized trophozoites, SYBR Green I growth inhibition in next cycle
Format: cell-based
experimental_context: Plasmodium falciparum, read-out: P. falciparum 6-h Trophozoite Stage IC50 (Cam3.II)
pIC50: −log10 of the molar value.
experimental_endpoint: pIC50

INSERT INTO assay_data (chemical_structure, numeric_value) VALUES
  ('Nc1ncnc2c1c(OC(F)F)nn2[C@@H]1O[C@H](COS(N)(=O)=O)[C@@H](O)[C@H]1O', 6.87),
  ('CC(C)c1nn([C@@H]2O[C@H](COS(N)(=O)=O)[C@@H](O)[C@H]2O)c2ncnc(N)c12', 7.54),
  ('CC(C)Oc1nn([C@@H]2O[C@H](COS(N)(=O)=O)[C@@H](O)[C@H]2O)c2ncnc(N)c12', 6.66),
  ('Nc1ncnc2c1c(C(F)(F)F)nn2[C@@H]1O[C@H](COS(N)(=O)=O)[C@@H](O)[C@H]1O', 6.82);

* * *

Test system: P. vivax Brazilian field isolates
experiment_notes: Ex vivo drug susceptibility of Brazilian field isolates (P. vivax)
Format: cell-based
experimental_context: Plasmodium vivax, read-out: EC50 range, P. vivax Brazilian field isolates
experimental_endpoint: EC50

INSERT INTO measurements (compound, experimental_endpoint, result) VALUES
  ('CCN(CC)CCCC(C)Nc1ccnc2cc(Cl)ccc12 (stereo not shown)', 'EC50', '104 to 560 nM');

* * *

experiment_notes: Rat pharmacokinetics
Assay type: in vivo, Sprague-Dawley rats
experimental_context: male, Sprague-Dawley, whole blood, iv, 1 mg/kg, IV 1 mg/kg, blood, read-out: Vz
experimental_endpoint: Vd (L/kg)

INSERT INTO results (molecule, experimental_endpoint, units, numeric_value) VALUES
  ('CC(C)c1nn([C@@H]2O[C@H](COS(N)(=O)=O)[C@@H](O)[C@H]2O)c2ncnc(N)c12 [ML471]', 'Vd', 'L/kg', 6.54);

* * *

System: HepG2 cells
experiment_notes: HepG2 72-h viability, CellTiter-Glo
Type: cell-based
experimental_context: Homo sapiens, 72 h exposure
Please use met for IC50 under 5 µM and not met for everything else, ties included.

INSERT INTO measurements (chemical_structure, class_name) VALUES
  ('CC(C)Oc1nn([C@@H]2O[C@H](COS(N)(=O)=O)[C@@H](O)[C@H]2O)c2ncnc(N)c12', 'not met'),
  ('CC(C)c1nn([C@@H]2O[C@H](COS(N)(=O)=O)[C@@H](O)[C@H]2O)c2ncnc(N)c12', 'not met'),
  ('Nc1ncnc2c1c(C1CC1)nn2[C@@H]1O[C@H](COS(N)(=O)=O)[C@@H](O)[C@H]1O', 'not met'),
  ('CCc1nn([C@@H]2O[C@H](COS(N)(=O)=O)[C@@H](O)[C@H]2O)c2ncnc(N)c12', 'not met'),
  ('Nc1ncnc2c1c(OC(F)F)nn2[C@@H]1O[C@H](COS(N)(=O)=O)[C@@H](O)[C@H]1O', 'met'),
  ('Nc1ncnc2c1c(C(F)(F)F)nn2[C@@H]1O[C@H](COS(N)(=O)=O)[C@@H](O)[C@H]1O', 'met'),
  ('Nc1ncnc2c1c(Oc1ccccc1)nn2[C@@H]1O[C@H](COS(N)(=O)=O)[C@@H](O)[C@H]1O', 'not met'),
  ('CCOc1nn([C@@H]2O[C@H](COS(N)(=O)=O)[C@@H](O)[C@H]2O)c2ncnc(N)c12', 'not met'),
  ('CC(=O)c1nn([C@@H]2O[C@H](COS(N)(=O)=O)[C@@H](O)[C@H]2O)c2ncnc(N)c12', 'not met');

* * *

experiment_notes: Blood exposure in the P. falciparum infected SCID mouse model
Type: in vivo, NODscidIL2Rγ^null mice engrafted with human RBCs
experimental_context: female, NODscidIL2Rγ^null, mouse, whole blood, po, 100 mg/kg, 1 x 100 mg/kg p.o., mice M1, M2, read-out: Cmax (individual mice)
experimental_endpoint: Cmax (µg/mL)

INSERT INTO measurements (molecule, experimental_endpoint, numeric_value) VALUES
  ('CC(C)c1nn([C@@H]2O[C@H](COS(N)(=O)=O)[C@@H](O)[C@H]2O)c2ncnc(N)c12 [ML471]', 'Cmax', 3.1);

* * *

experiment_notes: Blood exposure in the P. falciparum infected SCID mouse model
Format: in vivo, NODscidIL2Rγ^null mice engrafted with human RBCs
experimental_context: female, NODscidIL2Rγ^null, mouse, whole blood, po, 200 mg/kg, 1 x 200 mg/kg p.o., mice M3, M4, read-out: Cmax (individual mice)
experimental_endpoint: Cmax (ng/mL)

INSERT INTO assay_data (chemical_structure, numeric_value) VALUES
  ('CC(C)c1nn([C@@H]2O[C@H](COS(N)(=O)=O)[C@@H](O)[C@H]2O)c2ncnc(N)c12', 3340);

* * *

experiment_notes: Blood exposure in the P. falciparum infected SCID mouse model
Type: in vivo, NODscidIL2Rγ^null mice engrafted with human RBCs
experimental_context: female, NODscidIL2Rγ^null, mouse, whole blood, po, 50 mg/kg, 4 days x 50 mg/kg p.o., after first dose, blood, read-out: Tmax (mean)
experimental_endpoint: Tmax (h)

INSERT INTO measurements (compound, numeric_value) VALUES
  ('CC(C)c1nn([C@@H]2O[C@H](COS(N)(=O)=O)[C@@H](O)[C@H]2O)c2ncnc(N)c12 [ML471]', 15);

* * *

system_under_test: NAE (NEDD8-activating enzyme) (Homo sapiens)
Sequence (Q8TBC4 1-463): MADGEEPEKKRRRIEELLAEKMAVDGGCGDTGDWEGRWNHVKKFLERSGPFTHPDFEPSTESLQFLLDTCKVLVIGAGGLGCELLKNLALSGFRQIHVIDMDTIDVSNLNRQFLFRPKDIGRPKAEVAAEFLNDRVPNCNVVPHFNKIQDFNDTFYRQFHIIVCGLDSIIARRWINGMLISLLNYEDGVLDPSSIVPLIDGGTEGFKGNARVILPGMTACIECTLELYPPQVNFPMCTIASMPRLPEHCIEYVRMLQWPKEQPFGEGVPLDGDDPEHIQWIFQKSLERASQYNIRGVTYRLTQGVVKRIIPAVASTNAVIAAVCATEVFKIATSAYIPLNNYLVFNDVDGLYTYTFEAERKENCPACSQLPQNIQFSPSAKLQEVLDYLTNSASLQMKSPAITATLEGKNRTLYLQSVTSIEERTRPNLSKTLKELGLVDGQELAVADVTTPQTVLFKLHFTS
Sequence (Q13564 1-534 partner): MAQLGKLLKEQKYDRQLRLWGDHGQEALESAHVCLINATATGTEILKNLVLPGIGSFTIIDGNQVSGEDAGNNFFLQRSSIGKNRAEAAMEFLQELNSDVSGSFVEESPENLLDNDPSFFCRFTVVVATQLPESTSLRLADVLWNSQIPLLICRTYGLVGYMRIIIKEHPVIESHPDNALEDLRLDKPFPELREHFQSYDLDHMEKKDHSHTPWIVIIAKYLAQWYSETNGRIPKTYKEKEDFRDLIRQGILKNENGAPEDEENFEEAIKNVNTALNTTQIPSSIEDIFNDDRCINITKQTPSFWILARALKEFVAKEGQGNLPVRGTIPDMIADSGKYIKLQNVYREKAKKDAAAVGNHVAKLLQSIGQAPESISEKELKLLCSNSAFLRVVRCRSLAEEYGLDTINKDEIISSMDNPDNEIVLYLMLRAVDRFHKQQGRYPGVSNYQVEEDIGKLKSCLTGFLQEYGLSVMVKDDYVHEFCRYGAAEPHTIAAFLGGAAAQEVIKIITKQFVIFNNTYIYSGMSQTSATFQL
experimental_endpoint: IC50 (µM)

INSERT INTO assay_data (chemical_structure, experimental_endpoint, value_comparator, numeric_value) VALUES
  ('Nc1ncnc2c1c(OC(F)F)nn2[C@@H]1O[C@H](COS(N)(=O)=O)[C@@H](O)[C@H]1O', 'IC50', '=', 28),
  ('CCc1nn([C@@H]2O[C@H](COS(N)(=O)=O)[C@@H](O)[C@H]2O)c2ncnc(N)c12', 'IC50', '=', 35.3),
  ('CC(C)Oc1nn([C@@H]2O[C@H](COS(N)(=O)=O)[C@@H](O)[C@H]2O)c2ncnc(N)c12', 'IC50', '>', 100);
